Please go through the items and note down their koff.
- Assay system: KIX domain of CBP (UniProt P45481 586-665)
- Sequence (P45481 586-665): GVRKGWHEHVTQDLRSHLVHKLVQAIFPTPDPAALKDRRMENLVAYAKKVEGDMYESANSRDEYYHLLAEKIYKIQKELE
- Assay details: dissociation kinetics by competition; FITC-pKID displaced from KIX by unlabeled competitor cMybTAD; kdiss = asymptote of the observed dissociation rate against competitor concentration
- Run conditions: both partners purified
Non-standard residues stand in square brackets, D forms with d. No end group written: not given here. *: point of attachment. FITC = O=C1OC2(c3ccc(O)cc3Oc3cc(O)ccc32)c2ccc(NC(=S)*)cc21; pS = N[C@@H](COP(=O)(O)O)C(=O)O
// note: answer is a bare numeric in s⁻¹

Output koff of {FITC}-DSVTDSQKRREILSRRP[pS]YGKILNDLSSDAP (peptide, UniProt P15337-1 116-146, looked up, also called A135G; source: synthetic peptide, bought: Biomatik) [FITC-pKID R135G]
10.1

Output koff of {FITC}-DSVADSQKRREILSRRP[pS]YRKILNDLSSDAP (peptide, UniProt P15337-1 116-146, looked up, source: synthetic peptide, bought: Biomatik) [FITC-pKID T119A]
0.88

Output koff of {FITC}-DSVTDSQKRREILSRRP[pS]YRGILNDLSSDAP (peptide, UniProt P15337-1 116-146, looked up, also called A136G; source: synthetic peptide, bought: Biomatik) [FITC-pKID K136G]
10.5

Output koff of {FITC}-DSVTDSQKRRGILSRRP[pS]YRKILNDLSSDAP (peptide, UniProt P15337-1 116-146, looked up, also called A126G; source: synthetic peptide, bought: Biomatik) [FITC-pKID E126G]
2.09

Output koff of {FITC}-DSVTDSQKRRAILSRRP[pS]YRKILNDLSSDAP (peptide, UniProt P15337-1 116-146, looked up, source: synthetic peptide, bought: Biomatik) [FITC-pKID E126A]
0.97

Output koff of {FITC}-DSVTDSQKRREILSRRG[pS]YRKILNDLSSDAP (peptide, UniProt P15337-1 116-146, looked up, also called A132G; source: synthetic peptide, bought: Biomatik) [FITC-pKID P132G]
3.22

Output koff of {FITC}-DSVTDSQKRREILSRRP[pS]YRKILNDLSADAP (peptide, UniProt P15337-1 116-146, looked up, source: synthetic peptide, bought: Biomatik) [FITC-pKID S143A]
0.71

Output koff of {FITC}-DSVTDSQKRREILSRRA[pS]YRKILNDLSSDAP (peptide, UniProt P15337-1 116-146, looked up, source: synthetic peptide, bought: Biomatik) [FITC-pKID P132A]
0.99

Output koff of {FITC}-DSVGDSQKRREILSRRP[pS]YRKILNDLSSDAP (peptide, UniProt P15337-1 116-146, looked up, the peptide has Gly in place of the natural Thr119; also called A119G; source: synthetic peptide, bought: Biomatik) [FITC-pKID T119G]
0.67

Output koff of {FITC}-DSVTDSQKRREILSRRP[pS]YRAILNDLSSDAP (peptide, UniProt P15337-1 116-146, looked up, source: synthetic peptide, bought: Biomatik) [FITC-pKID K136A]
0.94

Output koff of {FITC}-DSVTDSQKRREILSRRP[pS]YRKILNDLSGDAP (peptide, UniProt P15337-1 116-146, looked up, the text prints S143G; also called A143G; source: synthetic peptide, bought: Biomatik) [FITC-pKID S143G]
1.2

Output koff of {FITC}-DSVTDSQKRREILSRRP[pS]YAKILNDLSSDAP (peptide, UniProt P15337-1 116-146, looked up, source: synthetic peptide, bought: Biomatik) [FITC-pKID R135A]
2.5

Origin of measurements: paper PMC5770965
